test system: M. tuberculosis H37Rv growth inhibition, 7H9 media; assay: M. tuberculosis growth inhibition, HTS (AID 449762); conditions: measured here: IC90 growth inhibition;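 also: bacterial growth assessed after seven days of incubation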
Results filed as inconclusive are left out.
QUANTITY_KIND: IC90 (µM)
Numbers only here, please. The scale is µM.

For orientation, consider the following solved cases.
COC(=O)[C@H](CCSC)NC(=O)N1CCN(c2cccc(C(F)(F)F)c2)CC1    40.5
O=C(c1cnn2c(C(F)F)cc(-c3ccccc3)nc12)N1CCc2ccccc2C1    49

Memo: Cc1nc(NC(=O)c2ccccc2)sc1C1(C)CC(c2ccc(OC(F)(F)F)cc2)=NO1 (stereo unspecified) , reported IC90: 41.1

CC1CC(C)CN(C(=O)C2CCC(CNc3c(N4CCCCC4)c(=O)c3=O)CC2)C1 (stereo unspecified) yielded IC90 of 71.7

* * *

system: M. tuberculosis H37Rv growth inhibition, 7H9 media; assay: M. tuberculosis growth inhibition, HTS (AID 449762); conditions: measured here: IC90 growth inhibition;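 also: bacterial growth assessed after seven days of incubation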
Inconclusive results are not listed.
Lab note: anything with IC90 below 10 µM is marked Criterion met; values at 10 µM or higher are marked Criterion not met.

Example results:
Cc1cc(/C=C\c2ccc3cc(N(C)C)ccc3[n+]2C)c(C)n1-c1ccccc1    Criterion met
Cc1ccc2c(c1)c1ncnc(N3CCc4ccccc4C3)c1n2C    Criterion not met
CN1CCN2c3ccccc3Cc3ccccc3C2C1 (stereo not given)    Criterion not met
O=C1/C(=N\S(=O)(=O)c2cccs2)C([n+]2ccc(CCCc3ccccc3)cc2)=C([O-])c2ccccc21    Criterion not met
CCN1c2ccccc2N(C)C1(C)c1ccccc1 (stereo not given)    Criterion met
CSc1cccc(CNC(=O)C2CCC(=O)N(Cc3cccc(C(F)(F)F)c3)C2)c1 (stereo not given)    Criterion not met
CC(=O)Nc1ccc(S(=O)(=O)Nc2ccc(N3CCCCC3)cc2)cc1    Criterion not met
CCn1c(=O)c(CCC(=O)N2CCN(c3ccccn3)CC2)c(C)c2c(C)nn(-c3cccc(C)c3)c21    Criterion not met
CS(=O)(=O)c1ccc([C@@H](O)[C@@H](CF)NC(=O)C(Cl)Cl)cc1    Criterion not met
Cc1nonc1NC(=O)CSc1ccc(-c2ccccc2)nn1    Criterion not met

Q) Hello, is IC90 of the following compound strictly smaller than 10 µM? CCCCn1cnc2cc(NCc3cccc(OC)c3O)ccc21
A) Criterion not met

Q) Does the reported IC90 of the following compound sit strictly below 10 µM? CCCOc1cccc(-c2nn(-c3ccccc3)cc2/C=C(\C#N)C(=O)NCCCn2ccnc2)c1
A) Criterion not met

Q) Please state whether IC90 is below 10 µM for Cn1cnnc1SCc1ccc(C(=O)N=Nc2c(O)n(Cc3ccc(Cl)cc3)c3ccccc23)cc1
A) Criterion met

* * *

In this section, each of the compounds is paired with its reported IC90.
tested on: M. tuberculosis H37Rv growth inhibition, 7H9 media; test: M. tuberculosis growth inhibition, HTS (AID 449762); details: measured here: IC90 growth inhibition;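 also: bacterial growth assessed after seven days of incubation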
Results filed as inconclusive are left out.
# unit: µM | format: bare number

COc1ccc(OCc2cccc(C(=O)Nn3cc([N+](=O)[O-])cn3)c2)cc1    36.5
O=C(c1cccc(-c2ccco2)c1)N1CCCC(N2CCN(c3ccc(F)cc3)CC2)C1 (configuration not stated)    78.8

The reported M. tuberculosis H37Rv growth inhibition, 7H9 media IC90 of CCOc1ccc(-c2cc(C(=O)NCCCn3ccnc3)c3cc(Br)ccc3n2)cc1 is 27.4

Readout IC90 for Nc1c2c(nc3ccn(Cc4ccccc4)c(=O)c13)CCC2 , test system M. tuberculosis H37Rv growth inhibition, 7H9 media, was 33.6

Record Clc1ccc(CCC(Cn2ccnc2)Sc2c(Cl)cccc2Cl)cc1 (configuration not stated) / M. tuberculosis H37Rv growth inhibition, 7H9 media, IC90 recorded as 14.3

Kindly note: M. tuberculosis H37Rv growth inhibition, 7H9 media, COc1ccc(-n2cc(CNCCc3cscn3)c(-c3ccccc3Cl)n2)cc1 , IC90 value reported: 29.7

Form field IC90 for item CCOC(=O)c1sc2nc(C)nc(SC(C)C(=O)N(C)c3ccccc3)c2c1C (configuration not stated) on M. tuberculosis H37Rv growth inhibition, 7H9 media: 46.5
